Entry source: ChEMBL document CHEMBL3885861

compounds and their reported BUN
- Species on record: Rattus norvegicus
- Assay name: Open TG-GATES - Regimen: Single
- Format: toxicity, organism-based, Sprague-Dawley
- Design: regimen Single, gender Male, age 6 weeks
- Test settings: in vivo, po, 300 mg/kg, 24 h, tissue Plasma, route gavage, dose level Middle
Quantity: BUN (mg/dL)

compound="CCOC(=O)CCC(=O)O[C@H]1[C@H](O[C@@H]2[C@@H](C)[C@H](O[C@H]3C[C@@](C)(OC)[C@@H](O)[C@H](C)O3)[C@@H](C)C(=O)O[C@H](CC)[C@@](C)(O)[C@H](O)[C@@H](C)C(=O)[C@H](C)C[C@@]2(C)O)O[C@H](C)C[C@@H]1N(C)C [ERYTHROMYCIN ETHYLSUCCINATE]" readout_number=15.4
compound="COC1=CC(=O)C[C@@H](C)[C@]12Oc1c(Cl)c(OC)cc(OC)c1C2=O [GRISEOFULVIN]" readout_number=14.6
compound="NC(N)=Nc1nc(CSCCC(N)=NS(N)(=O)=O)cs1 [FAMOTIDINE]" readout_number=13.2
compound="COc1ccc2[nH]c([S+]([O-])Cc3ncc(C)c(OC)c3C)nc2c1 (centres undefined) [OMEPRAZOLE]" readout_number=15.4
